Biological target: MCH1R (Homo sapiens)
Construct: IC50; other: cells stably expressing non-endogenous active MCH1R; 50 nM MCH; Fluo-4 calcium, FDSS6000; list of compounds i
Test: MCH1R calcium evaluation test (FDSS assay, inhibition of MCH-induced intracellular calcium increase)
Conditions: cells stably expressing non-endogenous active MCH1R; 50 nM MCH; Fluo-4 calcium, FDSS6000
Counter-ions that a name gives are not always drawn.
Measured property: IC50 (nM)

Example entries and their recorded answers appear below.
>>> reported_value("COc1cccc(C(=O)NC2CCN(Cc3ccc4ccc(CNCCN(C)C)cc4c3)CC2)c1")
7.08
>>> reported_value("COc1cccc(C(=O)NC2CCN(Cc3ccc4ccc(CNCCN)cc4c3)CC2)c1 [Example 64, trihydrochloride]")
7.14

[A] COCCOCc1ccc2ccc(CN3CCC(NC(=O)c4cccc(C(C)=O)c4)CC3)cc2c1
[B] CCOCc1ccc2ccc(CN3CCC(NC(=O)c4ccc(F)c(Cl)c4)CC3)cc2c1
Endpoint returns whichever of A and B has the numerically higher IC50. Returns: label corresponding to the selected item.
A
(A: 7.69 nM, B: 3.54 nM)

---

Target: MCH1R (Homo sapiens, UniProt Q99705)
Construct: IC50; other: cells stably expressing non-endogenous active MCH1R; 50 nM MCH; Fluo-4 calcium, FDSS6000; list of compounds i
Experiment: MCH1R calcium evaluation test (FDSS assay, inhibition of MCH-induced intracellular calcium increase)
Details: cells stably expressing non-endogenous active MCH1R; 50 nM MCH; Fluo-4 calcium, FDSS6000
From the text: MCH1R Calcium Evaluation Test An FDSS assay can measure the intracellular calcium concentration and can evaluate the Gq-coupled receptor activity using the calcium concentration as an index. For example, the assay can determine whether an analyte is an antagonist, an inverse agonist or an agonist for a Gq-coupled receptor. […] Intracellular calcium release by activation of a Gq-coupled receptor can be fluorometrically measured by incorporating a calcium indicator (such as Fluo4) into cells. […]
Counter-ions that a name gives are not always drawn.
Measured property: IC50 (nM)

Example entries and their recorded answers appear below.
>>> reported_value("COc1cccc(C(=O)NC2CCN(Cc3ccc4ccc(CNCCN5CCCC5)cc4c3)CC2)c1")
9.68
>>> reported_value("CNCCNCc1ccc2ccc(CN3CCC(NC(=O)c4cccc(OC)c4)CC3)cc2c1 [Example 67, trihydrochloride]")
6.51
>>> reported_value("COc1cccc(C(=O)NC2CCN(Cc3ccc4ccc(CCO)cc4c3)CC2)c1")
7.41

[P] COCCOCc1ccc2ccc(CN3CCC(NC(=O)c4cccc(OC)c4)CC3)cc2c1
[Q] COCc1ccc2ccc(CN3CCC(NC(=O)c4cccc(OC)c4)CC3)cc2c1
Endpoint returns whichever of P and Q has the numerically higher IC50. Returns: label corresponding to the selected item.
Q

---

Molecular target: MCH1R (Homo sapiens)
Construct: IC50; other: cells stably expressing non-endogenous active MCH1R; 50 nM MCH; Fluo-4 calcium, FDSS6000; list of compounds i
Assay: MCH1R calcium evaluation test (FDSS assay, inhibition of MCH-induced intracellular calcium increase)
Settings: cells stably expressing non-endogenous active MCH1R; 50 nM MCH; Fluo-4 calcium, FDSS6000
pIC50: −log10 of the molar value.
Measured property: pIC50

>>> reported_value("COc1cccc(C(=O)NC2CCN(Cc3ccc4ccc(COCCN5CCCC5)cc4c3)CC2)c1")
8.21
>>> reported_value("COCc1ccc2ccc(CN3CCC(NC(=O)c4cc(OC)cc(OC)c4)CC3)cc2c1")
8.30
>>> reported_value("COc1cccc(C(=O)NC2CCN(Cc3ccc4ccc(COCCN(C)C)cc4c3)CC2)c1")
8.31
